Target: human recombinant 5-HT2C receptor (Homo sapiens (Human))
Sequence (P28335 33-458): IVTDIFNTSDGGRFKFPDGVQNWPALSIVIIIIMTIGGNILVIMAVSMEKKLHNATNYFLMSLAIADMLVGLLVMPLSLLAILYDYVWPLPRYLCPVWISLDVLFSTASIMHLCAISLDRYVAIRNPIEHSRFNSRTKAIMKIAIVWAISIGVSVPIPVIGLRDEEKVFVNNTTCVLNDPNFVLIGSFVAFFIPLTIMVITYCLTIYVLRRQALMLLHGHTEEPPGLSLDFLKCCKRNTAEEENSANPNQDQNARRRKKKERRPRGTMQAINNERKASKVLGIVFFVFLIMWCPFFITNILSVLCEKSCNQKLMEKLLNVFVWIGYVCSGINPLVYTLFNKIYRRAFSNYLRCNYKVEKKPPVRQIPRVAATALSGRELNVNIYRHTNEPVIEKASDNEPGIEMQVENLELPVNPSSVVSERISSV
Test: 5-HT2C receptor binding inhibition test ([3H]-Mesulergine)
Conditions: Jump-In HEK cell membrane, 37° C. 2 hours, read-out: h-5-HT2C Ki
quantity: Ki

Illustrative cases are given below, each with its answer.
compound: CC(C)COc1ccc(CN(Cc2ccc(F)cc2)C2=NC(=O)C3(CCNCC3)N2)cc1
test_target: human recombinant 5-HT2C receptor (Homo sapiens (Human))
Ki: < 0.01 µM
//
compound: CCCOc1ccc(CNC2=NOC3(CCN(C)CC34CC4)N2Cc2ccn(C)n2)cc1 (racemic)
test_target: human recombinant 5-HT2C receptor (Homo sapiens (Human))
Ki: 0.1 to 0.5 µM
//
compound: Cc1nc(CN(Cc2ccc(OCC3CC3)cc2)C2=NOC3(CCN(C)CC3)N2)co1
test_target: human recombinant 5-HT2C receptor (Homo sapiens (Human))
Ki: < 0.01 µM
//
compound: Cc1nc(CN(Cc2ccc(OCC(C)C)cc2)C2=NC(=O)C3(CCN(C)CC3)N2)co1
test_target: human recombinant 5-HT2C receptor (Homo sapiens (Human))
Ki: < 0.01 µM
//
compound: CCCOc1ccc(CN(Cc2coc(C)n2)C2=NOC3(CCN(C)CC3)N2)c(Cl)c1
test_target: human recombinant 5-HT2C receptor (Homo sapiens (Human))
Ki: < 0.01 µM

Hi team, please reply with Ki for each item in this list.
1. CCc1nc(CN(Cc2ccc(OCC(C)C)cc2)C2=NOC3(CCN(C)CC3)N2)co1
2. CC(C)COc1ccc(CN(Cc2cnn(C)n2)C2=NOC3(CCN(C)CC3)N2)c(F)c1

Response given:
1: < 0.01 µM; 2: < 0.01 µM

# per-item lookup of Ki; items listed below
1. CN1CCC2(CC1)NC(N(Cc1coc(C3CC3)n1)Cc1ccc(OCC(F)(F)F)cc1F)=NO2
2. CCCOc1ccc(CN(Cc2coc(C)n2)C2=NOC3(CCN(C)CC3)N2)cc1
3. Cc1ccc(CN(Cc2ccc(OCC(C)C)cc2)C2=NOC3(CCN(C)CC3)N2)cn1
4. CCCCOc1ccc(CN(Cc2coc(C)n2)C2=NOC3(CCN(C)CC3)N2)c(Br)c1

Response given:
< 0.01 µM
< 0.01 µM
0.1 to 0.5 µM
< 0.01 µM

I would be grateful if you could provide Ki for each of the following entries.
1. Cc1ccc2cc(CN(Cc3coc(C)n3)C3=NOC4(CCN(C)CC4)N3)sc2c1
2. CCCOc1ccc(CC2=NOC3(CCN(C)CC34CC4)N2Cc2cc(C)n(C)n2)cc1 (racemic)
3. Cc1coc(CN(Cc2ccc(OCC(C)C)cc2)C2=NOC3(CCN(C)CC3)N2)n1
4. Cc1nc(CN(Cc2ccsc2)C2=NOC3(CCN(C)CC3)N2)co1
5. CCCOc1ccc(CN(Cc2ccn(C)n2)C2=NOC3(CCN(C)CC3)N2)cc1

Response given:
1. < 0.01 µM
2. < 0.01 µM
3. 0.01 to 0.1 µM
4. < 0.01 µM
5. 0.01 to 0.1 µM

Each recorded value in this set is attributed to patent US20250026765A1.
